Provenance of the data: patent US20240360227A1

# assaySystem: Recombinant human his-tagged IGF R extracellular domain protein (human) (UniProt P08069)
# assayOverview: SPR, Ab captured via anti-huIgG Fc, pH 7.4
Documented kon across a set of binders
observedProperty: kon

binder="VRDN-02066 (antibody, V domains shown) VH: QVQLQESGPGLVKPSETLSLTCTVSGYSITGGYLWNWIRQPPGKGLEWIGYISYHGTNNYKPSLKDRVTISRDTSKNQFSLKLSSVTAADTAVYYCARYGRVFFDYWGQGTLVTVSS VL: DIVMTQSPLSLPVTPGEPASISCRSSQSIVHSNGNTYLQWYLQKPGQSPQLLIYKVSNRLYGVPDRFSGSGSGTDFTLKISRVEAEDVGVYYCFQGSHVHWTFGQGTKVEIK" observedproperty=kon result="112000 M⁻¹ s⁻¹"
binder="VRDN-02072 (antibody, V domains shown) VH: QVQLQESGPGLVKPSETLSLTCTVSGYSITGGYLWNWIRQPPGKGLEWIGYIHYDGTNNYKPSLKDRVTISRDTSKNQFSLKLSSVTAADTAVYYCARHGRVFFDYWGQGTLVTVSS VL: DIVMTQSPLSLPVTPGEPASISCRSHQSIVHSNGNTYLQWYLQKPGQSPQLLIYKVSNRLYGVPDRFSGSGSGTDFTLKISRVEAEDVGVYYCFQGSHVHWTFGQGTKVEIK" observedproperty=kon result="127000 M⁻¹ s⁻¹"
binder="VRDN-02019 (antibody, V domains shown) VH: QVQLQESGPGLVKPSETLSLTCTVSGYSITGGYLWNWIRQPPGKGLEWIGYISYDGTHNYKPSLKDRVTISRDTSKNQFSLKLSSVTAADTAVYYCARYGRVFFDYWGQGTLVTVSS VL: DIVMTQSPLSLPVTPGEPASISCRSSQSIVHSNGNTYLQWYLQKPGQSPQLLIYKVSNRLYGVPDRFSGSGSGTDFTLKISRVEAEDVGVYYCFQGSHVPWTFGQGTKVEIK" observedproperty=kon result="101000 M⁻¹ s⁻¹"
binder="VRDN-02001 (antibody, V domains shown) VH: QVQLQESGPGLVKPSETLSLTCTVSHYSITGGYLWNWIRQPPGKGLEWIGYISYDGTNNYKPSLKDRVTISRDTSKNQFSLKLSSVTAADTAVYYCARYGRVFFDYWGQGTLVTVSS VL: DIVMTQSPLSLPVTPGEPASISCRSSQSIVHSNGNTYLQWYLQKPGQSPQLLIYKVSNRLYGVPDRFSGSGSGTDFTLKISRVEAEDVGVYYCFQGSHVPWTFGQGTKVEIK" observedproperty=kon result="103000 M⁻¹ s⁻¹"
